SYSTEM_UNDER_TEST: Voltage-gated inwardly rectifying potassium channel KCNH2 (Homo sapiens) (UniProt Q12809)
Sequence (Q12809 whole entry, looked up): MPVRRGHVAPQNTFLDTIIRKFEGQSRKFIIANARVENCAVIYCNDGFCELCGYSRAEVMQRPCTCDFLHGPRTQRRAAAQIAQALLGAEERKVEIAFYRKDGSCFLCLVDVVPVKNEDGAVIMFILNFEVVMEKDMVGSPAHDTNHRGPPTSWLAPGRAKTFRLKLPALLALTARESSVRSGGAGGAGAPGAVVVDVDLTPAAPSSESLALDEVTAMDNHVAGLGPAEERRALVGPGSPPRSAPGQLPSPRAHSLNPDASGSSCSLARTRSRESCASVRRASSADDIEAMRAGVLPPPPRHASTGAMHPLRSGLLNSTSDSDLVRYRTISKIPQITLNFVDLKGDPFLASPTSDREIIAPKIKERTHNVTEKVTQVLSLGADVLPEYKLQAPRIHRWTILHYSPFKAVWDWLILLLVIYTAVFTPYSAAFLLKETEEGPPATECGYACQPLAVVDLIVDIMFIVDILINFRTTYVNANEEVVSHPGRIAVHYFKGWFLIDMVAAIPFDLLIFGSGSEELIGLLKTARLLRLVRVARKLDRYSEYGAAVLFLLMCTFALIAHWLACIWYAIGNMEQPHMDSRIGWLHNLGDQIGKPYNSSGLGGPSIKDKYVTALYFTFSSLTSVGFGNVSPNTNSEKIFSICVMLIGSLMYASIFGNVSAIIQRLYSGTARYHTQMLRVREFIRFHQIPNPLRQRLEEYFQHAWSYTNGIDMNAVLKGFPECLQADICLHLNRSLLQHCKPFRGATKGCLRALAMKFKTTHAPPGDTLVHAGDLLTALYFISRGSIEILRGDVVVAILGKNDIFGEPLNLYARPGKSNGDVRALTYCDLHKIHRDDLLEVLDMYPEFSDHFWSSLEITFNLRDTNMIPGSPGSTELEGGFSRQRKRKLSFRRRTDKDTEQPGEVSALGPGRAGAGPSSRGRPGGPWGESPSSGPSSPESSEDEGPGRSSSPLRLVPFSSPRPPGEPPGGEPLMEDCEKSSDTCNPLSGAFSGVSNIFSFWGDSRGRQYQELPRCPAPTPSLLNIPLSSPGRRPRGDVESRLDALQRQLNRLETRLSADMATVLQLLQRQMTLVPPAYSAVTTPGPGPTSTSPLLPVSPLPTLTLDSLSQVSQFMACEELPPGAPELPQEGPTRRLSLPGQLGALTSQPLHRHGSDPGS
METHOD: KCNH2 potassium channel function modulators, cell-based (AID 376);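 further: 0% = buffer alone and 100% = reference blocker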
PROTOCOL_CONDITIONS: hERG-expressing cells, channel activity single-concentration screen; concentration not given here
The whole screen tested about 2,000 compounds, of which about 250 (12%) were called active. Shown is part of a subset that was picked to be rich in actives.
EXPERIMENTAL_READOUT: hERG blockade (%)
The reply should be a number in %, with the unit left off.

Inquiry: For O=C1C(=Cc2ccccc2)C(NC2CCCCC2)c2ccccc21 (stereo unspecified) , what is its reported hERG blockade?
Reply text: -0.193

Inquiry: For Cc1cc(Cl)ccc1Nc1sc(C(=O)c2cc3cc(Cl)ccc3o2)c(N)c1C#N , what is its reported hERG blockade?
Reply text: 24

Inquiry: For O=C(O)CCSc1ncnc2nc[nH]c12 , what is its reported hERG blockade?
Reply text: 2.65

Inquiry: For NC(=O)C1CCCN1Cc1ccc2c(c1)OCO2 (stereo unspecified) , what is its reported hERG blockade?
Reply text: -14.4

Inquiry: For COc1cc(NCCC(=O)O)c2ncccc2c1 , what is its reported hERG blockade?
Reply text: 11.9

Inquiry: For Oc1c(C(Nc2ccccn2)c2ccccc2)ccc2cccnc12 (stereo unspecified) , what is its reported hERG blockade?
Reply text: 12.1
